Test system: SK-MEL-28 melanoma
protocol notes: NCI-60 one-dose screen, 48 h (100 = growth as untreated, 0 = no growth, -100 = all killed)
test parameters: 10 µM unless noted
Compounds without any hit were thinned out: in the full panel of roughly 83,000, 20% have a hit.
This listing pairs compounds with measured growth.
property: growth (%)

- compound: "O=C1NC(=Nc2ccc(Cl)cc2)S/C1=C\\c1cn(-c2ccccc2)nc1-c1ccccc1"
  observed: 97.8
- compound: "CC1CC2Oc3ccc(Cl)cc3C(=O)N2O1 (centres undefined)"
  observed: 118
- compound: "N/C(=N/N=C/c1ccccc1)N/N=C\\c1ccccc1"
  observed: 71.9
- compound: "CC(=O)OC[C@H]1OC(Sc2sc(C(=O)c3ccc(Br)cc3)c(N)c2-c2nc3ccccc3s2)[C@H](OC(C)=O)[C@@H](OC(C)=O)[C@@H]1OC(C)=O (some centres undefined)"
  observed: 70.7
- compound: "COc1ccc(CN2C(=O)C(Cl)=C(Nc3cccc(C(F)(F)F)c3)C2=O)cc1"
  observed: 55.2
- compound: "C=CCn1c(C)nc2cc(Nc3nc(N4CCCC4)nc4ccccc34)ccc21"
  observed: 80.1
- compound: "c1csc(-c2c3ccc(=[N+]4CCCCC4)cc-3oc3cc(N4CCCCC4)ccc23)c1"
  observed: -66.4
- compound: "CN1CCN(C(=O)c2c3c(n4ccccc24)C(=O)c2ncccc2C3=O)CC1"
  observed: 103
- compound: "CC(C)C(=O)Nc1n[nH]c2cc(-c3cccc(NS(=O)(=O)C4CC4)c3)ccc12"
  observed: 78.4
- compound: "COc1ccc2c(c1)O/C(=C\\c1cccc(OCC(=O)Nc3nc4ccccc4s3)c1)C2=O"
  observed: 96.7
- compound: "O=C(N/N=C/C=C/c1ccc([N+](=O)[O-])o1)c1cc2ccccc2cc1O"
  observed: -66.5
- compound: "O=C1Nc2ccccc2/C1=C/c1cn(C(=O)c2c(Cl)cccc2Cl)c2ccccc12"
  observed: 81.5
- compound: "CN(C)CC1C(=O)O[C@H]2[C@H]1CC/C(COC(=O)c1cc3ccccc3[nH]1)=C\\CC[C@@]1(C)O[C@@H]21 (some centres undefined)"
  observed: -59.1
- compound: "Cc1cccc(-c2nc(N(C)c3ccc4ncsc4c3)c3ccccc3n2)n1"
  observed: 72
- compound: "Cc1cc(NCCCCNc2ccnc3cc(Cl)ccc23)nc(Nc2ccc(C(=O)N3CCCCC3)cc2)n1"
  observed: -76.5
- compound: "Cc1c(C(=O)N[C@@H](Cc2ccccc2)C(=O)C(=O)NCCc2ccccc2)[nH]c2ccccc2c1=O"
  observed: 105
- compound: "O=C(Nc1ccccc1-c1nc2ccccc2c(=O)[nH]1)c1cc2ccccc2[nH]1"
  observed: 99.9
- compound: "Cc1c(C(=O)NC(Cc2ccccc2)C(O)C(=O)NCc2ccc(F)cc2)[nH]c2ccccc2c1=O (centres undefined)"
  observed: 107
- compound: "C=CC(=O)Nc1cccc(Oc2nccc(Nc3nnc(C4CC4)s3)n2)c1"
  observed: 98.8
- compound: "O=C(COc1ccc(/C=C2\\Oc3ccccc3C2=O)cc1)Nc1nc2c(s1)CCCC2"
  observed: 117
- compound: "CC1=C([Se]CC(OC(=O)CC[Se]c2ccccc2)C(=O)NCCCCCC(=O)OCc2ccccc2)C(=O)c2ccccc2C1=O (centres undefined)"
  observed: 21.7
- compound: "COc1cc(C(=O)c2cc(C)c3[nH]c4ccc(Cl)cc4c3c2C)cc(OC)c1OC"
  observed: 53.6
- compound: "N#Cc1nc(C#N)c(Sc2ccccc2)c(Sc2ccccc2)c1Sc1ccccc1"
  observed: -84.3
- compound: "CC/C=C\\C[C@H](O)C/C=C1/C(=O)C=C[C@@H]1C/C=C\\CCCC(=O)OC"
  observed: -34.3

====

System: K-562 leukemia
protocol notes: NCI-60 one-dose screen, 48 h
test parameters: 10 µM unless noted
Compounds without any hit were thinned out: in the full panel of roughly 83,000, 20% have a hit. The source made the active and inactive calls. The calls were made as follows: active = growth percent below 10; inactive = the rest.
Labels: 1.0 for active, 0.0 for inactive

- molecule: "Cc1ccc2nc3ccccc3c(NCc3ccccc3)c2c1"
  category: 0.0
- molecule: "CC1(C)OC2C(CO[Si](C)(C)C(C)(C)C)OC(n3c(I)c(C#C[Si](C)(C)C)c(=O)[nH]c3=O)C2O1 (stereo unspecified)"
  category: 0.0
- molecule: "Cc1nc2ccccc2n1CC1NC(=O)NC1=O (stereo unspecified)"
  category: 0.0
- molecule: "CCOC(=O)C/C(C)=N\\NC(=O)c1ccncc1"
  category: 0.0
- molecule: "COc1ccc(C(=NN=C(N)N)c2ccc(OC)cc2)cc1"
  category: 0.0
- molecule: "O=C1/C(=C/c2ccc(Br)cc2)C=C(c2ccccc2)N1CCc1ccccc1"
  category: 0.0
- molecule: "C=CC(=O)Nc1cccc(Oc2nccc(Nc3nnc(C4CC4)s3)n2)c1"
  category: 0.0
- molecule: "O=C1C=C[C@]2(C[C@@H](c3cccc(C(F)(F)F)c3)O[C@@H](c3cccc(C(F)(F)F)c3)O2)O1"
  category: 1.0
- molecule: "CCc1ccccc1-n1c(N)c(C#N)c(-c2ccc(N(C)C)cc2)c(C#N)c1=O"
  category: 0.0
- molecule: "COc1ccc(-c2nc(SCCC(C)C)nc(N/N=C\\c3cccc(Cl)c3)c2C#N)cc1"
  category: 0.0
- molecule: "CN(C)CCC=C1c2ccccc2C(C)(C)c2ccccc21"
  category: 0.0
- molecule: "COc1cccc(-c2nn(-c3ccccc3)cc2-c2ccnc(NCCNC(=O)Nc3ccccc3)c2)c1"
  category: 0.0
- molecule: "CCN(CC)CCN1CC(O)=C(c2nc(-c3ccc(Cl)cc3)cs2)C1=N"
  category: 1.0
- molecule: "O=C(CCCCCCN1CC(=O)N2[C@@H](c3ccccc3Cl)c3[nH]c4ccccc4c3C[C@H]2C1=O)NO"
  category: 0.0
- molecule: "CS(=O)c1cccc(-c2ccc3nc(N)n(-c4ccc(C(F)(F)F)cc4)c(=O)c3c2)c1 (stereo unspecified)"
  category: 0.0
- molecule: "O=C1OC(c2nc3ccccc3s2)=C/C1=C\\c1ccc(O)cc1"
  category: 0.0
- molecule: "Cc1cc(NCc2cc(Nc3ccnc4cc(Cl)ccc34)ccc2F)nc(Cl)n1"
  category: 0.0
- molecule: "COC(=O)[C@]12CC[C@@H](C)[C@H](C)[C@@H]1C1=CC[C@@H]3[C@@]4(C)C(C=O)=C[C@@](C)(CO)[C@@H]4[C@H](O)C[C@@]3(C)[C@]1(C)CC2"
  category: 1.0
- molecule: "Cc1c2c(c(C)c3c1oc1cc(O)ccc13)C(=O)N(CCN1CCCCC1)C2=O"
  category: 1.0
- molecule: "C=C1C(=O)O[C@H]2[C@H]1CC/C(COC(=O)C(=O)c1cn(C)c3ccc(OC)cc13)=C\\CC[C@@]1(C)O[C@@H]21"
  category: 1.0
- molecule: "CNS(=O)(=O)c1n[nH]nc1-c1cc(C(C)(C)C)c(O)c(C(C)(C)C)c1"
  category: 0.0
- molecule: "COC(=O)c1ccc(C2Nc3ccc(S(=O)(=O)Nc4ccc(C)c(C)c4)cc3C3OCCC23)cc1 (stereo unspecified)"
  category: 0.0
- molecule: "C[C@]12CC[C@@H]3c4cc(OC(F)F)c(O)cc4CC[C@H]3[C@@H]1CC[C@@H]2OS(N)(=O)=O"
  category: 0.0
- molecule: "CCC1(C2CCCC2)NC(=O)NC1=O (stereo unspecified)"
  category: 0.0
- molecule: "COc1cccc(-c2nn(-c3ccccc3)cc2-c2ccnc(NCCCNC(=O)Nc3ccc(Cl)c(Cl)c3)c2)c1"
  category: 1.0
- molecule: "COCCN(C(=O)c1ccc(F)cc1F)c1c(N)n(Cc2ccccc2)c(=O)[nH]c1=O"
  category: 0.0

====

Test system: OVCAR-8 ovarian
protocol notes: NCI-60 one-dose screen, 48 h
test parameters: 10 µM unless noted
About 83,000 compounds went through this panel and 20% of them were active in at least one assay; those are over-represented in the sample as a whole. Active and inactive are the calls of the source. How the source made its calls: active means growth percent below 10; inactive means the rest.
Possible outcomes: class 1 for active, class 0 for inactive

- compound: "Nc1n[nH]c(-c2cc(Cl)ccc2O)c1-c1ccccc1"
  experimental target: "OVCAR-8 ovarian"
  category: "class 0"
- compound: "COc1ccc(N2CCN(c3nc(-c4cc(OC)c(OC)c(OC)c4)nc4ccccc34)CC2)cc1"
  experimental target: "OVCAR-8 ovarian"
  category: "class 0"
- compound: "Cc1cc(/C=C\\c2ccc3ccccc3[n+]2C)c(O)c2ncccc12"
  experimental target: "OVCAR-8 ovarian"
  category: "class 1"
- compound: "COc1cccc(-c2nc3sccn3c2-c2ccnc(NCCNS(=O)(=O)c3cccc(F)c3)c2)c1"
  experimental target: "OVCAR-8 ovarian"
  category: "class 0"
- compound: "Cc1ccc(C2SCC(=O)N2Cc2ccccc2)cc1 (stereo not drawn)"
  experimental target: "OVCAR-8 ovarian"
  category: "class 0"
- compound: "Cc1ccc(-c2c(-c3ccccc3)c(=O)oc3ccc(C)cc23)cc1"
  experimental target: "OVCAR-8 ovarian"
  category: "class 0"
- compound: "CC/C=C/C/C=C/C/C=C/C/C=C/C/C=C/C/C=C/CCC(=O)Nc1ccn([C@@H]2O[C@H](CO)[C@@H](O)C2(F)F)c(=O)n1"
  experimental target: "OVCAR-8 ovarian"
  category: "class 0"
- compound: "C=CCn1c(C)nc2cc(Nc3nc(N4CCCC4)nc4ccccc34)ccc21"
  experimental target: "OVCAR-8 ovarian"
  category: "class 0"
- compound: "O=c1c2c3c(sc2nc(N/N=C/c2ccc(Br)cc2)n1Cc1ccccc1)CCCC3"
  experimental target: "OVCAR-8 ovarian"
  category: "class 0"
- compound: "COC(=O)[C@H](CSC)N(C)C(=O)[C@@H]1CSSC[C@@H](NC(=O)c2nc3ccccc3cc2O)C(=O)NCC(=O)N1C"
  experimental target: "OVCAR-8 ovarian"
  category: "class 0"
- compound: "O=C(/C=C/c1ccco1)c1ccc(Nc2nc(Nc3ccc(F)cc3)nc(Nc3ccc(Cl)cc3)n2)cc1"
  experimental target: "OVCAR-8 ovarian"
  category: "class 0"
- compound: "CCOC(=O)c1ccc(N2NC(=O)/C(=C/c3ccc([N+](=O)[O-])o3)C2=O)cc1"
  experimental target: "OVCAR-8 ovarian"
  category: "class 0"
- compound: "COc1ccc(NC(=O)c2nc(-c3cc(OC)c(OC)c(OC)c3)n(-c3cccc4ccccc34)n2)cc1OC"
  experimental target: "OVCAR-8 ovarian"
  category: "class 0"
- compound: "COc1cccc(-c2nn(-c3ccccc3)cc2-c2ccnc(NCCNC(=O)Nc3ccccc3)c2)c1"
  experimental target: "OVCAR-8 ovarian"
  category: "class 0"
- compound: "N#Cc1c(-c2cccc(Cl)c2)cc(-c2cccc(F)c2)[nH]c1=O"
  experimental target: "OVCAR-8 ovarian"
  category: "class 0"
- compound: "O=Cc1ccc(O)c2ncccc12"
  experimental target: "OVCAR-8 ovarian"
  category: "class 1"
- compound: "C=CCNc1nc(NN2C(=O)c3cccc4cccc(c34)C2=O)nc(-n2cnc3ccccc32)n1"
  experimental target: "OVCAR-8 ovarian"
  category: "class 0"
- compound: "NC(N)=NN=C(c1ccccc1)c1ccccc1"
  experimental target: "OVCAR-8 ovarian"
  category: "class 0"
- compound: "N=C1CCC(=N)c2c1c(O)c1ccccc1c2O"
  experimental target: "OVCAR-8 ovarian"
  category: "class 0"
- compound: "O=C1OC(c2nc3ccccc3s2)=C/C1=C\\c1ccc(O)cc1"
  experimental target: "OVCAR-8 ovarian"
  category: "class 0"
- compound: "c1ccc2cc3nc4cc5ccccc5cc4nc3cc2c1"
  experimental target: "OVCAR-8 ovarian"
  category: "class 0"
- compound: "COc1ccccc1CNCCCN1C(=O)c2ccc3c4c(ccc(c24)C1=O)C(=O)N(CCCNCCCCN)C3=O"
  experimental target: "OVCAR-8 ovarian"
  category: "class 1"
- compound: "COC(=O)CCC1=C(C)C2=NC1=CC1=NC(=CC3=NC(=Cc4[nH]c(/c(=C(/C)O)c4C)=C2)C(C(C)=O)=C3C)C(C)=C1CCC(=O)OC"
  experimental target: "OVCAR-8 ovarian"
  category: "class 0"
